property.name: melting point

### Prompt Please report the measured melting point for Cc1cc(C)c(N2CCCc3c2nn(C)c3C(=O)N2CCc3ccccc3C2)c(C)c1
### Response 80.3 to 87.7 °C

### Prompt Please report the measured melting point for C=Cc1c2c(nn1C)N(c1ccc(Cl)cc1Cl)CCC2
### Response 99.6 to 100.6 °C

### Prompt Please report the measured melting point for Cc1cc(C)c(N2CCCc3c2nn(C)c3C(C)C)c(C)c1
### Response 105.9 to 108.9 °C

### Prompt Please report the measured melting point for COCC(O)(COC)c1c2c(nn1C)N(c1c(C)cc(C)cc1C)CCC2
### Response 120.3 to 121.8 °C

### Prompt Please report the measured melting point for Cc1cc(C)c(N2CCCc3c2nn(C)c3S(C)(=O)=O)c(C)c1
### Response 181.6 to 183 °C
